# System: HCT116
# ASSAY EXPLANATION: MTT assay, cell proliferation
# Assay type: cell-based
# TEST CONDITIONS: Homo sapiens, HCT-116, 24 h, read-out: IC50, inhibition of cell proliferation
# Method: […] Cells were treated with various concentrations of compound in 96-well culture plates for 24 h in final volumes of 200 μL (5 × 10^3 cells/well). […] Then the medium was carefully removed, and precipitates were dissolved in 150 μL of DMSO, shaken mechanically for 30 min, and then absorbance values at a wavelength of 570 nm were taken on a spectrophotometer (Molecular Devices, Sunnyvale, CA, USA). Values were calculated using percentage of growth versus untreated control. […]
pIC50: −log10 of the molar value.

COMPOUND	RESULT COMPARATOR	pIC50
CC(=O)Nc1ccc(NC(=O)/C(C)=C\CC23OC(C)(C)C4CC(C=C5C(=O)c6c(O)c7c(c(CC=C(C)C)c6OC542)OC(C)(CCC=C(C)C)C=C7)C3=O)cc1 (stereo not drawn) [Compound 35, N-(4-acetamidophenyl) gambogamide]	=	6.40
CC(C)=CCCC1(C)C=Cc2c(O)c3c(c(CC=C(C)C)c2O1)OC12C(=CC4CC1C(C)(C)OC2(C/C=C(/C)C(=O)Oc1ccccc1Br)C4=O)C3=O (stereo not drawn) [Compound 17, 2-Bromophenyl gambogate]	=	4.48
CC(C)=CCCC1(C)C=Cc2c(O)c3c(c(CC=C(C)C)c2O1)OC12C(=CC4CC1C(C)(C)OC2(C/C=C(/C)C(=O)Oc1ccc(C(C)(C)CC(C)(C)C)cc1)C4=O)C3=O (stereo not drawn) [Compound 25]	<	4.10

---

# System: K562
# ASSAY EXPLANATION: MTT assay, cell proliferation
# Type: cell-based
# TEST CONDITIONS: Homo sapiens, 24 h, read-out: IC50, inhibition of cell proliferation
pIC50: −log10 of the molar value.
Known pIC50 of a selection of compounds

COMPOUND	TARGET UNDER TEST	pIC50
CC(C)=CCCC1(C)C=Cc2c(O)c3c(c(CC=C(C)C)c2O1)OC12C(=CC4CC1C(C)(C)OC2(C/C=C(/C)C(=O)Oc1ccc(Cl)cc1C=O)C4=O)C3=O (stereo not drawn) [Compound 23, 4-Chloro-2-formylphenyl gambogate]	K562	4.81
CC(C)=CCCC1(C)C=Cc2c(O)c3c(c(CC=C(C)C)c2O1)OC12C(=CC4CC1C(C)(C)OC2(C/C=C(/C)C(=O)Oc1ccc(NC(=O)CCCl)cc1)C4=O)C3=O (stereo not drawn) [Compound 9]	K562	5.94
CC(C)=CCCC1(C)C=Cc2c(O)c3c(c(CC=C(C)C)c2O1)OC12C(=CC4CC1C(C)(C)OC2(C/C=C(/C)C(=O)Oc1cc2ccccc2oc1=O)C4=O)C3=O (stereo not drawn) [Compound 6, Coumarin-3-gambogate]	K562	5.26

---

Known IC50 of a selection of compounds
# Tested on: HCT116
# ASSAY EXPLANATION: MTT assay, cell proliferation
# Format: cell-based
# TEST CONDITIONS: Homo sapiens, HCT-116, 24 h, read-out: IC50, inhibition of cell proliferation

COMPOUND	RESULT COMPARATOR	IC50 (µM)
CC(C)=CCCC1(C)C=Cc2c(O)c3c(c(CC=C(C)C)c2O1)OC12C(=CC4CC1C(C)(C)OC2(C/C=C(/C)C(=O)Oc1cccc(C#N)c1)C4=O)C3=O (centres unmarked) [Compound 12, 3-Cyanophenyl gambogate]	=	5.57
CC(C)=CCCC1(C)C=Cc2c(O)c3c(c(CC=C(C)C)c2O1)OC12C(=CC4CC1C(C)(C)OC2(C/C=C(/C)C(=O)n1cccn1)C4=O)C3=O (centres unmarked)	=	1.2
CC(C)=CCCC1(C)C=Cc2c(O)c3c(c(CC=C(C)C)c2O1)OC12C(=CC4CC1C(C)(C)OC2(C/C=C(/C)C(=O)Oc1ccc2ccc(=O)oc2c1)C4=O)C3=O (centres unmarked) [Compound 7, Coumarin-7-gambogate]	=	6
CC(=O)c1ccc(OC(=O)/C(C)=C\CC23OC(C)(C)C4CC(C=C5C(=O)c6c(O)c7c(c(CC=C(C)C)c6OC542)OC(C)(CCC=C(C)C)C=C7)C3=O)c([N+](=O)[O-])c1 (centres unmarked) [Compound 5, 2-Nitro-4-ethanonephenyl gambogate]	=	5.47
CC(C)=CCCC1(C)C=Cc2c(O)c3c(c(CC=C(C)C)c2O1)OC12C(=CC4CC1C(C)(C)OC2(C/C=C(/C)C(=O)Oc1ccc(Br)c(F)c1F)C4=O)C3=O (centres unmarked) [Compound 24, 4-Bromo-2,3-difluorophenyl gambogate]	>	80
CC(C)=CCCC1(C)C=Cc2c(O)c3c(c(CC=C(C)C)c2O1)OC12C(=CC4CC1C(C)(C)OC2(C/C=C(/C)C(=O)Oc1cccc(C)c1[N+](=O)[O-])C4=O)C3=O (centres unmarked) [Compound 14, 3-Methyl-2-nitrophenyl gambogate]	=	34.8
CC(C)=CCCC1(C)C=Cc2c(O)c3c(c(CC=C(C)C)c2O1)OC12C(=CC4CC1C(C)(C)OC2(C/C=C(/C)C(=O)Oc1ccc(C)c([N+](=O)[O-])c1)C4=O)C3=O (centres unmarked) [Compound 1, 4-Methyl-3-nitrophenyl gambogate]	=	25.5
CC(C)=CCCC1(C)C=Cc2c(O)c3c(c(CC=C(C)C)c2O1)OC12C(=CC4CC1C(C)(C)OC2(C/C=C(/C)C(=O)Oc1ccc(Br)cc1)C4=O)C3=O (centres unmarked) [Compound 19, 4-Bromophenyl gambogate]	=	70.2
CC(C)=CCCC1(C)C=Cc2c(O)c3c(c(CC=C(C)C)c2O1)OC12C(=CC4CC1C(C)(C)OC2(C/C=C(/C)C(=O)Oc1cccc(C=O)c1)C4=O)C3=O (centres unmarked) [Compound 15, 3-Formylphenyl gambogate]	=	6.8
CC(C)=CCCC1(C)C=Cc2c(O)c3c(c(CC=C(C)C)c2O1)OC12C(=CC4CC1C(C)(C)OC2(C/C=C(/C)C(=O)Oc1ccc(Cl)cc1C=O)C4=O)C3=O (centres unmarked) [Compound 23, 4-Chloro-2-formylphenyl gambogate]	=	15.9
COc1ccc(OC(=O)/C(C)=C\CC23OC(C)(C)C4CC(C=C5C(=O)c6c(O)c7c(c(CC=C(C)C)c6OC542)OC(C)(CCC=C(C)C)C=C7)C3=O)cc1Br (centres unmarked) [Compound 22, 2-Bromo-4-methoxyphenyl gambogate]	=	36.9
CCc1ccc(OC(=O)/C(C)=C\CC23OC(C)(C)C4CC(C=C5C(=O)c6c(O)c7c(c(CC=C(C)C)c6OC542)OC(C)(CCC=C(C)C)C=C7)C3=O)cc1 (centres unmarked) [Compound 21, 4-Ethylphenyl gambogate]	>	80
CC(C)=CCCC1(C)C=Cc2c(O)c3c(c(CC=C(C)C)c2O1)OC12C(=CC4CC1C(C)(C)OC2(C/C=C(/C)C(=O)Oc1ccc(C(=O)CBr)cc1)C4=O)C3=O (centres unmarked) [Compound 16, 4-(2-Bromoacetyl)phenyl gambogate]	=	5.08
C=CCc1ccc(OC(=O)/C(C)=C\CC23OC(C)(C)C4CC(C=C5C(=O)c6c(O)c7c(c(CC=C(C)C)c6OC542)OC(C)(CCC=C(C)C)C=C7)C3=O)c(OC)c1 (centres unmarked) [Compound 3, 4-Allyl-2-methoxyphenyl gambogate]	=	18.7
CC(=O)Nc1ccc(NC(=O)/C(C)=C\CC23OC(C)(C)C4CC(C=C5C(=O)c6c(O)c7c(c(CC8OC8(C)C)c6OC542)OC(C)(CCC2OC2(C)C)C=C7)C3=O)cc1 (centres unmarked)	=	0.56
CC(C)=CCCC1(C)C=Cc2c(O)c3c(c(CC=C(C)C)c2O1)OC12C(=CC4CC1C(C)(C)OC2(C/C=C(/C)C(=O)Oc1ccc(C=O)cc1)C4=O)C3=O (centres unmarked) [Compound 20, 4-Formylphenyl gambogate]	=	7.9
CC(=O)Nc1ccc(SC(=O)/C(C)=C\CC23OC(C)(C)C4CC(C=C5C(=O)c6c(O)c7c(c(CC=C(C)C)c6OC542)OC(C)(CCC=C(C)C)C=C7)C3=O)cc1 (centres unmarked) [Compound 30, 4-Acetamidophenyl gambogthioate]	=	1.33

---

# Test system: A549
# ASSAY EXPLANATION: MTT assay, cell proliferation
# Assay type: cell-based
# TEST CONDITIONS: Homo sapiens, 24 h, read-out: IC50, inhibition of cell proliferation

MOLECULE	RESULT COMPARATOR	IC50, µM
CC(=O)Nc1ccccc1OC(=O)/C(C)=C\CC12OC(C)(C)C3CC(C=C4C(=O)c5c(O)c6c(c(CC=C(C)C)c5OC431)OC(C)(CCC=C(C)C)C=C6)C2=O (stereo not drawn) [Compound 27, 2-Acetamidophenyl gambogate]	=	1.22
CC(C)=CCCC1(C)C=Cc2c(O)c3c(c(CC=C(C)C)c2O1)OC12C(=CC4CC1C(C)(C)OC2(C/C=C(/C)C(=O)Oc1c(Br)ccc(F)c1F)C4=O)C3=O (stereo not drawn) [Compound 2, 6-Bromo-2,3-difluorophenyl gambogate]	=	49.1
COc1ccc(OC(=O)/C(C)=C\CC23OC(C)(C)C4CC(C=C5C(=O)c6c(O)c7c(c(CC=C(C)C)c6OC542)OC(C)(CCC=C(C)C)C=C7)C3=O)cc1Br (stereo not drawn) [Compound 22, 2-Bromo-4-methoxyphenyl gambogate]	>	80
CC(C)=CCCC1(C)C=Cc2c(O)c3c(c(CC=C(C)C)c2O1)OC12C(=CC4CC1C(C)(C)OC2(C/C=C(/C)C(=O)Oc1ccc(C(=O)CBr)cc1)C4=O)C3=O (stereo not drawn) [Compound 16, 4-(2-Bromoacetyl)phenyl gambogate]	>	80
CC(C)=CCCC1(C)C=Cc2c(O)c3c(c(CC=C(C)C)c2O1)OC12C(=CC4CC1C(C)(C)OC2(C/C=C(/C)C(=O)Oc1ccc(Cl)cc1C=O)C4=O)C3=O (stereo not drawn) [Compound 23, 4-Chloro-2-formylphenyl gambogate]	=	73.5
CC(C)=CCCC1(C)C=Cc2c(O)c3c(c(CC=C(C)C)c2O1)OC12C(=CC4CC1C(C)(C)OC2(C/C=C(/C)C(=O)Oc1ccc(C(C)(C)CC(C)(C)C)cc1)C4=O)C3=O (stereo not drawn) [Compound 25]	>	80
CCc1ccc(OC(=O)/C(C)=C\CC23OC(C)(C)C4CC(C=C5C(=O)c6c(O)c7c(c(CC=C(C)C)c6OC542)OC(C)(CCC=C(C)C)C=C7)C3=O)cc1 (stereo not drawn) [Compound 21, 4-Ethylphenyl gambogate]	>	80
CC(C)=CCCC1(C)C=Cc2c(O)c3c(c(CC=C(C)C)c2O1)OC12C(=CC4CC1C(C)(C)OC2(C/C=C(/C)C(=O)Nc1nccs1)C4=O)C3=O (stereo not drawn) [Compound 32, Thiazol-2-gambogamide]	=	0.74
CC(C)=CCCC1(C)C=Cc2c(O)c3c(c(CC=C(C)C)c2O1)OC12C(=CC4CC1C(C)(C)OC2(C/C=C(/C)C(=O)Oc1cccc(C=O)c1)C4=O)C3=O (stereo not drawn) [Compound 15, 3-Formylphenyl gambogate]	=	33
CC(C)=CCCC1(C)C=Cc2c(O)c3c(c(CC=C(C)C)c2O1)OC12C(=CC4CC1C(C)(C)OC2(C/C=C(/C)C(=O)Oc1ccc(C)c([N+](=O)[O-])c1)C4=O)C3=O (stereo not drawn) [Compound 1, 4-Methyl-3-nitrophenyl gambogate]	=	43.5
CC(C)=CCCC1(C)C=Cc2c(O)c3c(c(CC=C(C)C)c2O1)OC12C(=CC4CC1C(C)(C)OC2(C/C=C(/C)C(=O)n1cccn1)C4=O)C3=O (stereo not drawn) [Compound 33, 1-Gambogyl pyrazole]	=	1.3
CC(C)=CCCC1(C)C=Cc2c(O)c3c(c(CC=C(C)C)c2O1)OC12C(=CC4CC1C(C)(C)OC2(C/C=C(/C)C(=O)Oc1cccc([N+](=O)[O-])c1)C4=O)C3=O (stereo not drawn) [Compound 8, 3-Nitrophenyl gambogate]	>	80
CC(C)=CCCC1(C)C=Cc2c(O)c3c(c(CC=C(C)C)c2O1)OC12C(=CC4CC1C(C)(C)OC2(C/C=C(/C)C(=O)Oc1ccc(NC(=O)CCCl)cc1)C4=O)C3=O (stereo not drawn) [Compound 9]	=	3.75
COCCc1ccc(OC(=O)/C(C)=C\CC23OC(C)(C)C4CC(C=C5C(=O)c6c(O)c7c(c(CC=C(C)C)c6OC542)OC(C)(CCC=C(C)C)C=C7)C3=O)cc1 (stereo not drawn) [Compound 18, 4-(2-Methoxyethyl)phenyl gambogate]	=	66.2
CC(C)=CCCC1(C)C=Cc2c(O)c3c(c(CC=C(C)C)c2O1)OC12C(=CC4CC1C(C)(C)OC2(C/C=C(/C)C(=O)Oc1cc2ccccc2oc1=O)C4=O)C3=O (stereo not drawn) [Compound 6, Coumarin-3-gambogate]	=	19.7
CC(C)=CCCC1(C)C=Cc2c(O)c3c(c(CC=C(C)C)c2O1)OC12C(=CC4CC1C(C)(C)OC2(C/C=C(/C)C(=O)Oc1ccc(C=O)cc1)C4=O)C3=O (stereo not drawn) [Compound 20, 4-Formylphenyl gambogate]	=	31.2
CC(C)=CCCC1(C)C=Cc2c(O)c3c(c(CC=C(C)C)c2O1)OC12C(=CC4CC1C(C)(C)OC2(C/C=C(/C)C(=O)Oc1ccc(Br)cc1)C4=O)C3=O (stereo not drawn) [Compound 19, 4-Bromophenyl gambogate]	>	80
CC(C)=CCC[C@]1(C)C=Cc2c(O)c3c(c(CC=C(C)C)c2O1)O[C@]12C(=C[C@@H]4C[C@H]1C(C)(C)O[C@@]2(C/C=C(/C)C(=O)O)C4=O)C3=O [GA, Gambogic acid]	=	0.94
